Taken from ChEMBL document CHEMBL1129793.

# System: Mycobacterium avium
# assay_overview: In vitro activity against Mycobacterium avium (MAC-101).
# Format: functional
Label key: rule met means Log 1/MMIC under 0.6; rule not met means Log 1/MMIC of 0.6 or more.

Solved entries (count: 2):
>  <molecule>
CCOC(=O)c1cnc(Cl)cn1

>  <assigned_class>
rule met

$$$$
>  <molecule>
CCCCCOC(=O)c1cnc(Cl)cn1

>  <assigned_class>
rule not met

$$$$

Q. Say whether its Log 1/MMIC is strictly beneath 0.6. Entry: CCCCCCC(C)OC(=O)c1cnc(Cl)cn1 (centres undefined)
A. rule not met

Q. Say whether its Log 1/MMIC is strictly beneath 0.6. Entry: `O=C(OCc1ccccc1)c1cnc(Cl)cn1`
A. rule not met

Q. Say whether its Log 1/MMIC is strictly beneath 0.6. Entry: CCCCCCCCCC(C)OC(=O)c1cnc(Cl)cn1 (centres undefined)
A. rule not met

Q. Say whether its Log 1/MMIC is strictly beneath 0.6. Entry: CCCCCCCC(C)(CCCCC)OC(=O)c1cnc(Cl)cn1 (centres undefined)
A. rule not met

Q. Say whether its Log 1/MMIC is strictly beneath 0.6. Entry: `CCCCCC(C)(CCCCC)OC(=O)c1cnc(Cl)cn1`
A. rule not met

Q. Say whether its Log 1/MMIC is strictly beneath 0.6. Entry: `CCCCCCOC(=O)c1cnc(Cl)cn1`
A. rule not met

Q. Say whether its Log 1/MMIC is strictly beneath 0.6. Entry: `CCCOC(=O)c1cnc(Cl)cn1`
A. rule not met

Q. Say whether its Log 1/MMIC is strictly beneath 0.6. Entry: `CCCCCCCCCOC(=O)c1cnc(Cl)cn1`
A. rule not met

Q. Say whether its Log 1/MMIC is strictly beneath 0.6. Entry: `CCCCCCC(CCCCCC)OC(=O)c1cnc(Cl)cn1`
A. rule not met

Q. Say whether its Log 1/MMIC is strictly beneath 0.6. Entry: CCCCCC(C)OC(=O)c1cnc(Cl)cn1 (centres undefined)
A. rule not met

Q. Say whether its Log 1/MMIC is strictly beneath 0.6. Entry: `CCCCCCCCC(C)(C)OC(=O)c1cnc(Cl)cn1`
A. rule met

Q. Say whether its Log 1/MMIC is strictly beneath 0.6. Entry: CCCCCCCC(C)(CCCC)OC(=O)c1cnc(Cl)cn1 (centres undefined)
A. rule met

Q. Say whether its Log 1/MMIC is strictly beneath 0.6. Entry: CCCCCCCC(C)OC(=O)c1cnc(Cl)cn1 (centres undefined)
A. rule not met

Q. Say whether its Log 1/MMIC is strictly beneath 0.6. Entry: `CCCCCCCCCCOC(=O)c1cnc(F)cn1`
A. rule not met

Q. Say whether its Log 1/MMIC is strictly beneath 0.6. Entry: `CCCCCCC(C)(C)OC(=O)c1cnc(Cl)cn1`
A. rule not met
